test system: MCF7 breast; experiment: NCI tumour cell line growth inhibition, 48 h; in the data active = GI50 below about 0.43 µM; inactive = the rest
Outcomes you can answer with include only these: t = active, f = inactive

Exercise: Kindly provide the recorded test outcome for the following compound: COc1ccc(C2SCC(=O)N2NC(=O)Nc2c(C)nc3ccccn23)cc1 (stereo not drawn)
Key: f

Exercise: Same for COc1ccc(-c2nnc(COc3ccc(NC(=O)Nc4ccc(Cl)c(C(F)(F)F)c4)cc3F)o2)cc1
Key: f

Exercise: Now the same for COc1ccc(-n2cc(-c3cc(OC)c(OC)c(OC)c3)[nH]c2=O)cc1Cl
Key: f

Exercise: Try this compound next: Fc1ccc(-c2nn3ncccc3c2-c2ccnc(Nc3ccc4c(c3)OCCO4)n2)cc1
Key: f

Exercise: // same read-out, input: Cc1cc(O)c(C(C)(C)C)cc1Sc1cc(C(C)(C)C)c(O)cc1C
Key: f

Exercise: Let us now turn to CCC(=O)c1c(C(F)(F)F)n([O-])c2ccc(C)cc2[n+]1=O
Key: f

Exercise: Okay, and N#Cc1cccc(NC(=O)c2cc(-c3ccc(F)cc3F)ccc2O)c1 ?
Key: f

Exercise: Next: COc1ccc(OC)c(C(=O)c2oc3ccc(Br)cc3c2N)c1
Key: t
